# Test target: Porcine ventricle myofibrils (ventricular myosin ATPase) (Sus scrofa, UniProt P79293)
# Construct: Myofibrils from porcine cardiac muscle was isolated from the left ventricle of Yucatan minipigs; tissue Exemplar Genetics; host or cells: left ventricle of Yucatan minipigs, myofibrils prepared in house
# Sequence (P79293 whole entry): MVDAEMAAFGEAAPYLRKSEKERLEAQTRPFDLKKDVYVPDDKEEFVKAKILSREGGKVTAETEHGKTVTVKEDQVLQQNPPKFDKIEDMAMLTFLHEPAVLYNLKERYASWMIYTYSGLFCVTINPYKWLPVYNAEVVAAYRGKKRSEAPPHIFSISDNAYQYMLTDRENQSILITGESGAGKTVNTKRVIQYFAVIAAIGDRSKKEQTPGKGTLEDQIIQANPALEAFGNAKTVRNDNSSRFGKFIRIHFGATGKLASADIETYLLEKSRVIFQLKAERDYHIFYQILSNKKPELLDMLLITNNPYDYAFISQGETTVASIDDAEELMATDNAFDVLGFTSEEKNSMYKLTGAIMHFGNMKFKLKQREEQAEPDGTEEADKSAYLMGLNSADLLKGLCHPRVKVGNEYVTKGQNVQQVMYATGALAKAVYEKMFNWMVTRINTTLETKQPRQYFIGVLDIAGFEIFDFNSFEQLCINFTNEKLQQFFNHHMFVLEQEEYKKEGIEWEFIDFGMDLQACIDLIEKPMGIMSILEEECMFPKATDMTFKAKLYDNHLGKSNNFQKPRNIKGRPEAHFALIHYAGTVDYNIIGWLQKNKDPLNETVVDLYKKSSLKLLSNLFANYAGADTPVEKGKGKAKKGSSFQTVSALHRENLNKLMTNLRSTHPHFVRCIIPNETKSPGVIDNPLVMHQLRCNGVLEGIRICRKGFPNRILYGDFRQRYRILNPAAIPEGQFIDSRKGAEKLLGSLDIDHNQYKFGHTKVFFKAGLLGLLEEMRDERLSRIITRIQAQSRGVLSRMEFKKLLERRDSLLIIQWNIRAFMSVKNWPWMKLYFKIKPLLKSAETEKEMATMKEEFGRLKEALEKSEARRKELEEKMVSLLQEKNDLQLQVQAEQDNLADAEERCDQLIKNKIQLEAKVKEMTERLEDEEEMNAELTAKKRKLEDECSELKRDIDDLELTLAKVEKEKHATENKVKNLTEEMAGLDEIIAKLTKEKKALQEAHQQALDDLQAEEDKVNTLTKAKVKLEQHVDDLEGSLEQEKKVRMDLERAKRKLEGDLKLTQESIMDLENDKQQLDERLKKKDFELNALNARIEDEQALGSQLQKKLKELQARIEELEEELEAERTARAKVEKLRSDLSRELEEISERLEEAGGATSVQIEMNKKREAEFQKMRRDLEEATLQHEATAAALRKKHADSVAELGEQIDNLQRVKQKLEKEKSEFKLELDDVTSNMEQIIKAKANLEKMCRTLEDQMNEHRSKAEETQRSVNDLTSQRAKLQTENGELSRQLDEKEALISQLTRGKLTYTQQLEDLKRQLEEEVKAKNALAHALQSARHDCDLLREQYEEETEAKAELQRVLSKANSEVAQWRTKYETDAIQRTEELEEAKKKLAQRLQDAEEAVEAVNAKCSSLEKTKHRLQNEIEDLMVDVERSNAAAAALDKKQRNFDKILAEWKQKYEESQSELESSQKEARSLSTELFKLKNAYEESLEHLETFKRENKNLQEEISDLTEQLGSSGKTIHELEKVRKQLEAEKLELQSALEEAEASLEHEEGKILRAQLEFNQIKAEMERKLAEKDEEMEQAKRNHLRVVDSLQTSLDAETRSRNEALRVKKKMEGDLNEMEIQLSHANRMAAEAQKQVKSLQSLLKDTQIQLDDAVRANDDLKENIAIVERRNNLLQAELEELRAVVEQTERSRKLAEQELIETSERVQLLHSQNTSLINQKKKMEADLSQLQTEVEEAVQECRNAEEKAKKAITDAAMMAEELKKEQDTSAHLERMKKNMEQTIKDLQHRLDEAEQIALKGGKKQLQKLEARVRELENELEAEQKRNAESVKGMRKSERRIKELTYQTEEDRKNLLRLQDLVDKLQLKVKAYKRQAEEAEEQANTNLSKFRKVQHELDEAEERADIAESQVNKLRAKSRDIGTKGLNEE
# Assay explanation: Myofibril ATPase assay, porcine ventricle myofibrils
# Assay type: biochemical, porcine (Yucatan minipigs)
# Assay conditions: ‡ Y125 value, not a Y75 value (125% activity relative to no compound); porcine ventricle myofibrils
Ventricular EC25: recorded values

Worked set:
[
  {
    "Molecule": "Cc1ccc2[nH]c(=O)c(CC(=O)N[C@@H](C)c3ncc(C#N)cn3)cc2c1F (single isomer, unassigned)",
    "Ventricular EC25": "100.00‡ μM"
  },
  {
    "Molecule": "CC(NC(=O)C1(c2cc3c(F)c(F)ccc3[nH]c2=O)CC1)c1cccc(C#N)n1 (single isomer, unassigned)",
    "Ventricular EC25": "63.85‡ μM"
  },
  {
    "Molecule": "C[C@H](NC(=O)C1(c2cc3cc(F)ccc3[nH]c2=O)CC1)c1nccc(C#N)n1 (single isomer, unassigned)",
    "Ventricular EC25": "70.50‡ μM"
  }
]

Q: Please indicate Ventricular EC25 recorded for Cc1c(CC(=O)N[C@@H](C)c2ncc(C#N)cn2)c(=O)[nH]c2ccc(C#N)cc12 (single isomer, unassigned)
A: 100.00‡ μM

Q: Please indicate Ventricular EC25 recorded for C[C@H](NC(=O)C1(c2cc3c(F)c(F)ccc3[nH]c2=O)CC1)c1cc(C#N)ccn1 (single isomer, unassigned)
A: 100.00‡ μM

* * *

# System: Porcine atria myofibrils (atrial myosin ATPase)
# Assay explanation: Myofibril ATPase assay, porcine atria myofibrils
# Format: biochemical
# Assay conditions: Y75 value (no ‡ mark); porcine atria myofibrils
Observed property: Atrial EC25 (nM)

[
  {
    "Molecule": "Cc1c(CC(=O)N[C@@H](C)c2cnc(C#N)cn2)c(=O)[nH]c2ccc(F)c(F)c12",
    "Test target": "Porcine atria myofibrils (atrial myosin ATPase)",
    "Atrial EC25 (nM)": 140
  }
]

A = C[C@H](NC(=O)[C@H](C)c1cc2c(F)cccc2[nH]c1=O)c1ccc(F)cc1F (single isomer, unassigned)
B = Cc1cc(C#N)ccc1[C@@H](C)NC(=O)Cc1c(O)c2cc(F)c(F)cc2[nH]c1=O
C = C[C@H](NC(=O)[C@H](C)c1cc2c(F)c(F)ccc2[nH]c1=O)c1ccc(F)cc1F (single isomer, unassigned)
D = C[C@H](NC(=O)[C@H](C)c1c(C(F)(F)F)c2c(F)cccc2[nH]c1=O)c1ccc(F)cc1F (single isomer, unassigned)
E = Cc1c(C2(C(=O)N[C@@H]3CCc4cc(C#N)cnc43)CC2)c(=O)[nH]c2ccc(F)cc12 (single isomer, unassigned)
Q: Order the entries by their reported Atrial EC25, beginning at the minimum. Quick reminder: the answer is the labels in the order asked.
A: C, D, A, B, E

* * *

# Test system: Rabbit Psoas myofibrils (skeletal myosin ATPase)
# Assay explanation: Myofibril ATPase assay, rabbit psoas (skeletal) myofibrils
# Type: biochemical
# Assay conditions: rabbit psoas myofibrils; Y75 value
Observed property: Skeletal EC25 (nM)

a = Cc1c(CC(=O)N[C@@H](CO)c2ccc(F)cc2F)c(=O)[nH]c2ccnc(OC3CC3)c12
b = CCN(CC)c1nccc2[nH]c(=O)c(CC(=O)N[C@@H](C)c3ccc(F)cc3F)c(C)c12
c = Cc1c([C@H](C)C(=O)N[C@@H](C)c2ccc(F)cc2F)c(=O)[nH]c2ccnc(Cl)c12 (single isomer, unassigned)
d = Cc1nccc2[nH]c(=O)c(CC(=O)N[C@H](CO)Cc3ccccc3)c(C)c12
e = Cc1c(CC(=O)N[C@@H](C)c2ccc(F)cc2F)c(=O)[nH]c2ccc(OCC(F)(F)F)nc12
Q: Sort the listed compounds above so the one with the largest Skeletal EC25 comes first and the smallest comes last. Quick reminder: the answer is the labels in the order asked.
A: d, b, e, a, c

I = Cc1c(CC(=O)N[C@@H](C)c2ccc(C#N)cn2)c(=O)[nH]c2ccnc(C(F)(F)F)c12
II = Cc1nccc2[nH]c(=O)c(CC(=O)N[C@@H](CO)c3ccc(F)cc3F)c(C)c12 (single isomer, unassigned)
Q: Of the two listed items, which has the higher Skeletal EC25? First: I Second: II Identify your pick by its label.
A: II
(II: 550 nM, I: 210 nM)

1 = Cc1c(CC(=O)N[C@@H](C)c2ccc(C#N)cc2F)c(=O)[nH]c2ccnc(C(F)(F)F)c12
2 = Cc1nc([C@H](C)NC(=O)Cc2c(C)c3c(C)nccc3[nH]c2=O)ncc1C#N
3 = C[C@H](NC(=O)Cc1cc2c(C#N)nccc2[nH]c1=O)c1ccc(C#N)cn1
4 = C[C@H](NC(=O)Cc1cc2nc(C(F)(F)F)ccc2[nH]c1=O)c1ccc(F)cc1F
Q: List items by Skeletal EC25 in falling order. Quick reminder: the answer is the labels in the order asked.
A: 2, 4, 3, 1

P = Cc1c(CC(=O)N[C@@H](C)c2cnc(C#N)nc2)c(=O)[nH]c2ccc(C(F)(F)F)nc12
Q = Cc1nc([C@@H](C)NC(=O)Cc2c(C)c3c(C)nccc3[nH]c2=O)ncc1C#N
R = Cc1ccc([C@H](C)NC(=O)Cc2c(C)c3c(C)nccc3[nH]c2=O)cc1 (single isomer, unassigned)
S = Cc1c(CC(=O)N[C@H](C)c2ncc(F)cc2F)c(=O)[nH]c2ccc(O)nc12 (single isomer, unassigned)
T = Cc1c(CC(=O)N[C@@H](C)c2ccc(F)cc2F)c(=O)[nH]c2ccnnc12
Q: Order the entries by their reported Skeletal EC25, beginning at the minimum. Quick reminder: the answer is the labels in the order asked.
A: T, R, P, Q, S
(T: 2190 nM, R: 5050 nM, P: 10510 nM, Q: 65260 nM, S: 100000 nM)

* * *

# Test target: Porcine ventricle myofibrils (ventricular myosin ATPase) (Sus scrofa)
# Construct: Myofibrils from porcine cardiac muscle was isolated from the left ventricle of Yucatan minipigs; tissue Exemplar Genetics; host or cells: left ventricle of Yucatan minipigs, myofibrils prepared in house
# Assay explanation: Myofibril ATPase assay, porcine ventricle myofibrils
# Type: biochemical, porcine (Yucatan minipigs)
# Assay conditions: Y75 value (no ‡ mark); porcine ventricle myofibrils
Observed property: Ventricular EC25 (µM)

Worked set:
[
  {
    "Molecule": "Cc1c(C2(C(=O)N[C@H](C)c3cc(C#N)ccn3)CC2)c(=O)[nH]c2ccc(F)c(F)c12 (single isomer, unassigned)",
    "Unit of measure": "µM",
    "Ventricular EC25": 100.00
  },
  {
    "Molecule": "Cc1c(C(F)(F)C(=O)N[C@H](C)c2nccc(C#N)n2)c(=O)[nH]c2ccc(F)cc12 (single isomer, unassigned)",
    "Unit of measure": "µM",
    "Ventricular EC25": 100.00
  },
  {
    "Molecule": "Cc1ccncc1[C@@H](C)NC(=O)Cc1c(C)c2cc(F)ccc2[nH]c1=O",
    "Unit of measure": "µM",
    "Ventricular EC25": 1.73
  },
  {
    "Molecule": "COc1ccc2[nH]c(=O)c(CC(=O)N[C@@H](C)c3ccc(F)cc3F)cc2c1",
    "Unit of measure": "µM",
    "Ventricular EC25": 100.00
  }
]

P = Cc1c(CC(=O)N[C@@H](C)c2cnc(C#N)nc2)c(=O)[nH]c2cc(F)c(F)cc12 (single isomer, unassigned)
Q = Cc1c(F)ccc2[nH]c(=O)c(C(F)(F)C(=O)N[C@H](C)c3ncc(C#N)cc3F)c(C#N)c12 (single isomer, unassigned)
Q: Could you check which of P and Q has a smaller value for Ventricular EC25? Identify your pick by its label.
A: P
(P: 0.52 µM, Q: 1.19 µM)

* * *

# Test target: Porcine ventricle myofibrils (ventricular myosin ATPase) (Sus scrofa, UniProt P79293)
# Construct: Myofibrils from porcine cardiac muscle was isolated from the left ventricle of Yucatan minipigs; tissue Exemplar Genetics; host or cells: left ventricle of Yucatan minipigs, myofibrils prepared in house
# Assay explanation: Myofibril ATPase assay, porcine ventricle myofibrils
# Format: biochemical, porcine (Yucatan minipigs)
# Assay conditions: Y75 value: concentration required to reduce myosin ATP-ase activity by 25%; Porcine Ventricle Prep pCa 25 GEOM_MEAN
Observed property: Ventricular EC25 (µM)

[
  {
    "Molecule": "Cc1c(CC(=O)NC(C)c2cc(C#N)c(F)s2)c(=O)[nH]c2ccc(F)c(F)c12 (centres unmarked) [compound 4001]",
    "Observed property": "Ventricular EC25",
    "Result": 0.58
  }
]

a = C[C@H](NC(=O)Cc1cc2c(F)c(F)ccc2[nH]c1=O)c1cc(C#N)c(F)s1 (single isomer, unassigned) [compound 4003]
b = C[C@H](NC(=O)Cc1cc2c(F)c(F)ccc2[nH]c1=O)c1nc(C#N)cs1 (single isomer, unassigned) [compound 4008]
Q: Could you check which of a and b has a smaller value for Ventricular EC25? Identify your pick by its label.
A: b

a = CC(NC(=O)Cc1cc2c(F)c(F)ccc2[nH]c1=O)c1nc(C#N)cs1 (single isomer, unassigned) [compound 4009]
b = C[C@H](NC(=O)Cc1cc2c(F)c(F)ccc2[nH]c1=O)c1nc(C#N)co1 (single isomer, unassigned) [compound 4007]
Q: Of the two listed items, which has the higher Ventricular EC25? First: a Second: b Identify your pick by its label.
A: b

a = C[C@@H](NC(=O)Cc1cc2c(F)c(F)ccc2[nH]c1=O)c1nc(C#N)co1 (single isomer, unassigned) [compound 4006]
b = Cc1c(C(F)(F)C(=O)N[C@@H](C)c2nc(C#N)cs2)c(=O)[nH]c2ccc(F)cc12 (single isomer, unassigned) [Compound 4010]
Q: Of the two listed items, which has the higher Ventricular EC25? First: a Second: b Identify your pick by its label.
A: b
(b: 19.76 µM, a: 6.66 µM)
